Assay: Plasma concentrations (PK), Example 1
Format: in vivo, human
Conditions: human, plasma, oral, 100 mg, 100 mg QD; Week 12; Trough; read-out: Plasma concentration, Mean
Measure: level at 2016 h (ng/mL)
Please state the figure in ng/mL; there is no need to write the unit.

Record request: level at 2016 h value, item CC(=O)NCCCC[C@@H]1NC(=O)[C@H](Cc2c[nH]c3c(C)cccc23)NC(=O)[C@H]([C@@H](C)O)NC(=O)[C@H](CC(N)=O)NC(=O)[C@@H](NC(C)=O)C(C)(C)SSC(C)(C)[C@@H](C(=O)N[C@@H](Cc2ccc(OCCN)cc2)C(=O)N[C@@H](Cc2ccc3ccccc3c2)C(=O)NC2(C(=O)N[C@@H](CCC(=O)O)C(=O)N[C@@H](CC(N)=O)C(=O)N[C@@H](Cc3cccnc3)C(=O)N(C)CC(N)=O)CCOCC2)NC1=O [IL-23 receptor antagonist peptide]
0.355

====

Assay: Plasma concentrations (PK), Example 1
Type: in vivo, human
Details: human, plasma, oral, 100 mg, 100 mg BID; Week 4; Peak; read-out: Plasma concentration, Median
Measure: level at 672 h (ng/mL)
Express it in ng/mL; write the number only.

Which level at 672 h reading was recorded for the compound CC(=O)NCCCC[C@@H]1NC(=O)[C@H](Cc2c[nH]c3c(C)cccc23)NC(=O)[C@H]([C@@H](C)O)NC(=O)[C@H](CC(N)=O)NC(=O)[C@@H](NC(C)=O)C(C)(C)SSC(C)(C)[C@@H](C(=O)N[C@@H](Cc2ccc(OCCN)cc2)C(=O)N[C@@H](Cc2ccc3ccccc3c2)C(=O)NC2(C(=O)N[C@@H](CCC(=O)O)C(=O)N[C@@H](CC(N)=O)C(=O)N[C@@H](Cc3cccnc3)C(=O)N(C)CC(N)=O)CCOCC2)NC1=O [IL-23 receptor antagonist peptide] ?
1.84

====

Assay: Plasma concentrations (PK), Example 1
Assay type: in vivo, human
Conditions: human, plasma, oral, 100 mg, weight >90 kg, 100 mg QD, Week 12, Peak; read-out: Plasma concentration, Geometric Mean
Measure: level at 2016 h (ng/mL)
Answer in ng/mL, number only, no unit symbol.

// lookup level at 2016 h for CC(=O)NCCCC[C@@H]1NC(=O)[C@H](Cc2c[nH]c3c(C)cccc23)NC(=O)[C@H]([C@@H](C)O)NC(=O)[C@H](CC(N)=O)NC(=O)[C@@H](NC(C)=O)C(C)(C)SSC(C)(C)[C@@H](C(=O)N[C@@H](Cc2ccc(OCCN)cc2)C(=O)N[C@@H](Cc2ccc3ccccc3c2)C(=O)NC2(C(=O)N[C@@H](CCC(=O)O)C(=O)N[C@@H](CC(N)=O)C(=O)N[C@@H](Cc3cccnc3)C(=O)N(C)CC(N)=O)CCOCC2)NC1=O [IL-23 receptor antagonist peptide]
1.04

====

Assay: Plasma concentrations (PK), Example 1
Assay type: in vivo, human
Details: human, plasma, oral, 25 mg, weight >90 kg, 25 mg QD, Week 16, Trough; read-out: Plasma concentration, Mean
Measure: level at 2688 h (ng/mL)
Note: unit ng/mL is implicit; provide only the numeric part.

// query level at 2688 h value for entry CC(=O)NCCCC[C@@H]1NC(=O)[C@H](Cc2c[nH]c3c(C)cccc23)NC(=O)[C@H]([C@@H](C)O)NC(=O)[C@H](CC(N)=O)NC(=O)[C@@H](NC(C)=O)C(C)(C)SSC(C)(C)[C@@H](C(=O)N[C@@H](Cc2ccc(OCCN)cc2)C(=O)N[C@@H](Cc2ccc3ccccc3c2)C(=O)NC2(C(=O)N[C@@H](CCC(=O)O)C(=O)N[C@@H](CC(N)=O)C(=O)N[C@@H](Cc3cccnc3)C(=O)N(C)CC(N)=O)CCOCC2)NC1=O [IL-23 receptor antagonist peptide]
0.066

====

Assay: Plasma concentrations (PK), Example 1
Type: in vivo, human
Conditions: human, plasma, oral, 100 mg, 100 mg QD; Week 4; Peak; read-out: Plasma concentration, Mean
Measure: level at 672 h (ng/mL)
Quick reminder: number only, in ng/mL, skip the unit.

Fill in the blank: the reported level at 672 h of CC(=O)NCCCC[C@@H]1NC(=O)[C@H](Cc2c[nH]c3c(C)cccc23)NC(=O)[C@H]([C@@H](C)O)NC(=O)[C@H](CC(N)=O)NC(=O)[C@@H](NC(C)=O)C(C)(C)SSC(C)(C)[C@@H](C(=O)N[C@@H](Cc2ccc(OCCN)cc2)C(=O)N[C@@H](Cc2ccc3ccccc3c2)C(=O)NC2(C(=O)N[C@@H](CCC(=O)O)C(=O)N[C@@H](CC(N)=O)C(=O)N[C@@H](Cc3cccnc3)C(=O)N(C)CC(N)=O)CCOCC2)NC1=O [IL-23 receptor antagonist peptide] is ____.
1.31
